# Tested On: Virion infectivity factor (Human immunodeficiency virus type 1 group M subtype B (isolate BH10)) + Virion infectivity factor (Human immunodeficiency virus type 1 group M subtype B (isolate BRU/LAI)) + Virion infectivity factor (Human immunodeficiency virus type 1 group M subtype B (isolate PCV12)) + Virion infectivity factor (Human immunodeficiency virus type 1 group M subtype B (isolate HXB2)) + DNA dC->dU-editing enzyme APOBEC-3G (Homo sapiens) (UniProt P69720+P69721+P69722+P69723+Q9HC16)
# Procedure Details: inhibitors of Vif binding to APOBEC3G peptide, primary screen, biochemical, TR-FRET, GST-Vif 1-94, biotin-A3G peptide, dose response retest (AID 1117319);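 also: Vif residues 1-94 fused to GST binding biotinylated APOBEC3G peptide 110-148; 0% = full assay without inhibitor and 100% = GST in place of GST-Vif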
# Condition: hits give high values
Out of some 260,000 compounds screened, about 1,500 (0.58%) were called active. About 5% were inconclusive and are not listed. A selection follows. Measured potencies and affinities stand elsewhere.
Each item that follows carries a reported inhibition.
Quantity Name: inhibition (%)

{"columns": ["Molecule", "Quantity Name", "Numeric Result"],
 "data": [
  ["Cc1cccc(OCc2nc(C#N)c(NCc3ccc4c(c3)OCO4)o2)c1", "inhibition", 2.3],
  ["O=C(c1ccccc1)N1CCN(c2ccc(NCc3ccc4c(c3)OCO4)cc2)CC1", "inhibition", 21.7],
  ["CC(=O)N1CCN(c2ccc(NC(=O)c3ccc4c(c3)OCO4)cc2)CC1", "inhibition", 18.3],
  ["CCOc1ccc(NC(=O)NC2CCOC(C)(C)C2)cc1 (stereo unspecified)", "inhibition", 22],
  ["CCN(CC)CCCC(C)Nc1nccc2cccc(Cl)c12 (stereo unspecified)", "inhibition", -1],
  ["CC(=O)Nc1ccc(N2CCN(C(C)=O)CC2)cc1", "inhibition", 24.9],
  ["CCOc1ccc(NCCC#N)cc1", "inhibition", -2.11],
  ["C[C@H]1CN([C@@H](C)CO)C(=O)CCCn2nncc2CO[C@@H]1CN(C)C(=O)NC1CCCCC1", "inhibition", 1.5],
  ["Cc1ccc(CNC(=O)C2CC3Cn4c(nc5cc6ccccc6cc54)C3N2C)o1 (stereo unspecified)", "inhibition", 5.41],
  ["CN(C(=O)c1ccccc1C(=O)OCC(=O)Nc1ccccc1)c1ccccc1", "inhibition", -8.92],
  ["COc1ccc(S(=O)(=O)N2CCCCCC2)cc1C(=O)N(C)Cc1ccc(F)cc1", "inhibition", 4.27]
]}
